Cited source: ChEMBL document CHEMBL5058577

// reported Population Healthy Nuclei (%) for each item listed
- System: HEK-293T
- Assay name: Multiplex assay against HEK293T
- Assay type: toxicity, cell-based
- Condition description: human, 48 h, 10 µM, compound concentration 10 uM, replicate 2
Readout: Population Healthy Nuclei (%)

INSERT INTO results (compound, result) VALUES
  ('CC[C@H]1OC(=O)[C@H](C)[C@@H](O[C@H]2C[C@@](C)(OC)[C@@H](O)[C@H](C)O2)[C@H](C)[C@@H](O[C@@H]2O[C@H](C)C[C@H](N(C)C)[C@H]2O)[C@@]2(C)CC(C)=C(O2)[C@H](C)[C@@H](O)[C@]1(C)O', '75%'),
  ('C[C@H]1[C@H]2CC[C@H]3[C@@H]4CC=C5C[C@@H](N(C)C)CC[C@]5(C)[C@H]4CC[C@]23CN1C', '81%'),
  ('COc1ccc2c(c1)C(C(=O)N(Cc1ccc(N(C)C)cc1)c1ccc(C(C)C)cc1)CCC2.Cl (stereo not given)', '79%'),
  ('CCCC(CCC)C(=O)O', '82%'),
  ('COc1cc(C(=O)N(CCCc2ccccc2)Cc2ccc(CC(=O)O)cc2)cc(OC)c1C', '75%'),
  ('Cl.Clc1ccc2nsnc2c1NC1=NCCN1 [TIZANIDINE HYDROCHLORIDE]', '81%'),
  ('COc1ccccc1N1CCN(CCCCNC(=O)c2ccc3ccccc3c2)CC1.Cl', '78%'),
  ('CCCn1c(=O)c2[nH]c(C3CCCC3)nc2n(CCC)c1=O', '75%'),
  ('CC(C)(C)c1ccc(S(=O)(=O)Nc2ccc(Cl)cc2C(=O)c2cc[n+]([O-])cc2)cc1', '80%'),
  ('CCOc1c2c(c(OCC)c3ncccc13)CN(c1ccc(CS(=O)(=O)NC(=O)Cc3ccccc3OC)cc1C)C2=O', '81%');

* * *

// reported Population Normal (%) for each item listed
- System: Fibroblast
- Assay name: Multiplex assay against human fibroblast
- Type: toxicity, cell-based
- Condition description: 24 h, 10 µM, compound concentration 10 uM, replicate 2
Readout: Population Normal (%)

INSERT INTO measurements (compound, units_label, numeric_result) VALUES
  ('Cc1ccc(F)cc1C(=O)Nc1ccc(C(=O)N2Cc3cccn3Cc3ccccc32)c(Cl)c1 [LIXIVAPTAN]', '%', 94),
  ('Cl.Clc1ccc2nsnc2c1NC1=NCCN1 [TIZANIDINE HYDROCHLORIDE]', '%', 97),
  ('Oc1c(CN2CCN(c3ccccn3)CC2)cc(Cl)c2cccnc12', '%', 97),
  ('N#Cc1c(N)nc(SCc2csc(-c3ccc(Cl)cc3)n2)c(C#N)c1-c1ccc(OCCO)cc1 [CAPADENOSON]', '%', 93),
  ('CC(=O)NCCc1c(Cc2ccccc2)[nH]c2ccccc12 [LUZINDOLE]', '%', 96),
  ('C[C@H](NC(=O)c1c(C(F)F)nn(C)c1Oc1cccc(C(F)(F)F)c1)c1ccc(C(=O)O)cc1 [PALUPIPRANT]', '%', 89),
  ('c1cc(OCCCN2CCCCC2)ccc1CN1CCCCC1 [JNJ-5207852]', '%', 94),
  ('O=C(O)Cc1ccccc1Nc1c(Cl)cccc1Cl [DICLOFENAC]', '%', 97),
  ('CN1CCN(c2nc3cc(C(F)(F)F)ccc3n3cccc23)CC1.O=C(O)/C=C\C(=O)O.O=C(O)/C=C\C(=O)O', '%', 98),
  ('O=C(NCCO)c1cccc(-c2cc(Nc3ccc(OC(F)(F)F)cc3)ncn2)c1', '%', 92),
  ('CC(=O)O[C@H]1C(=O)[C@@]2(C)[C@H]([C@H](OC(=O)c3ccccc3)[C@]3(O)C[C@H](OC(=O)[C@H](O)[C@@H](NC(=O)c4ccccc4)c4ccccc4)C(C)=C1C3(C)C)[C@]1(OC(C)=O)CO[C@@H]1C[C@@H]2O [PACLITAXEL]', '%', 97),
  ('CN1CCN2c3ncccc3Cc3ccccc3C2C1 (centres undefined) [MIRTAZAPINE]', '%', 94),
  ('Cc1ccc(C(C)(O)c2nc3ccccc3s2)c(C)c1 (centres undefined)', '%', 93),
  ('Cc1ccc(/C(=C\CN2CCCC2)c2ccccn2)cc1 [TRIPROLIDINE]', '%', 97),
  ('CCOc1c2c(c(OCC)c3ncccc13)CN(c1ccc(CS(=O)(=O)NC(=O)Cc3ccccc3OC)cc1C)C2=O', '%', 95),
  ('O=C(NCC(=O)N1CC[C@H](N[C@H]2CC[C@@](O)(c3ccc(-c4ncccn4)cn3)CC2)C1)c1cccc(C(F)(F)F)c1 [PF-4136309]', '%', 97),
  ('CN(C)CCCc1cc(C(=O)Nc2ccc(-c3ccncc3)cc2)ccc1O.Cl.Cl', '%', 95),
  ('CC(C)(C)c1ccc(S(=O)(=O)Nc2ccc(Cl)cc2C(=O)c2cc[n+]([O-])cc2)cc1 [VERCIRNON]', '%', 99),
  ('CSc1ccccc1N1CCN(CCCCCC(=O)NC2CCCc3ccccc32)CC1.Cl (centres undefined)', '%', 96),
  ('CCCC(CCC)C(=O)O [VALPROIC ACID]', '%', 96),
  ('COc1cc(NC(=O)CCN2CCC(OC(=O)Nc3ccccc3-c3ccccc3)CC2)c(Cl)cc1CNC[C@H](O)c1ccc(O)c2[nH]c(=O)ccc12 [BATEFENTEROL]', '%', 98),
  ('Cc1ccccc1C(=O)Nc1ccc(C(=O)N2CCCC(N(C)C)c3ccccc32)cc1.Cl (centres undefined)', '%', 95),
  ('CCCN1CCC[C@@H]2Cc3n[nH]cc3C[C@H]21.Cl [QUINPIROLE HYDROCHLORIDE]', '%', 98),
  ('Cc1nc2ccc(Oc3ccc(F)cc3)cc2c(=O)n1C[C@H]1CCCN(C(C)C)C1.Cl', '%', 93),
  ('O=C1COc2nccc(-c3ccccc3F)c2CN1Cc1cc(C(F)(F)F)cc(C(F)(F)F)c1', '%', 93),
  ('O=S(=O)(c1ccccc1)c1cnc2c(N3CCNCC3)cccc2c1 [INTEPIRDINE]', '%', 95),
  ('COc1c(C)cc(NC(=O)c2nn(Cc3ccc(F)cc3)c3c2CN(C(=O)c2ccc[nH]2)C[C@]3(C)C(N)=O)cc1C', '%', 95),
  ('CN(C)c1ccnc2sc3c(=O)n(N4CCCCCC4)cnc3c12', '%', 91),
  ('C[C@H]1[C@H]2CC[C@H]3[C@@H]4CC=C5C[C@@H](N(C)C)CC[C@]5(C)[C@H]4CC[C@]23CN1C [CONESSINE]', '%', 97),
  ('CC[C@H]1OC(=O)[C@H](C)[C@@H](O[C@H]2C[C@@](C)(OC)[C@@H](O)[C@H](C)O2)[C@H](C)[C@@H](O[C@@H]2O[C@H](C)C[C@H](N(C)C)[C@H]2O)[C@@]2(C)CC(C)=C(O2)[C@H](C)[C@@H](O)[C@]1(C)O', '%', 98),
  ('CCNC1(C(N)=O)CCN(c2ncnc3c2nc(-c2ccccc2Cl)n3-c2ccc(Cl)cc2)CC1 [OTENABANT]', '%', 94),
  ('C[C@@H]1C[C@H]2[C@@H]3CCC4=CC(=O)C=C[C@]4(C)[C@@]3(F)[C@@H](O)C[C@]2(C)[C@@]1(O)C(=O)CO [DEXAMETHASONE]', '%', 93),
  ('COc1cc(C(=O)N(CCCc2ccccc2)Cc2ccc(CC(=O)O)cc2)cc(OC)c1C', '%', 96),
  ('N[C@@]1(C(=O)O)CO[C@H]2[C@H](C(=O)O)[C@H]21 [LY-379268]', '%', 93);

* * *

// reported Population Healthy Nuclei (%) for each item listed
- Test system: U2OS
- Assay name: Multiplex assay against U2OS
- Type: toxicity, cell-based
- Condition description: human, 12 h, 1 µM, compound concentration 1 uM, replicate 1
Readout: Population Healthy Nuclei (%)

INSERT INTO assay_data (compound, numeric_result) VALUES
  ('CN(C)c1ccnc2sc3c(=O)n(N4CCCCCC4)cnc3c12', 72),
  ('Cc1ccc(-c2ccc(F)cc2COc2ccc(CCC(=O)O)cc2)cc1', 71),
  ('Cc1nc2ccc(Oc3ccc(F)cc3)cc2c(=O)n1C[C@H]1CCCN(C(C)C)C1.Cl', 64),
  ('C[C@H]1[C@H]2CC[C@H]3[C@@H]4CC=C5C[C@@H](N(C)C)CC[C@]5(C)[C@H]4CC[C@]23CN1C', 70),
  ('COc1ccc2c(c1)C(C(=O)N(Cc1ccc(N(C)C)cc1)c1ccc(C(C)C)cc1)CCC2.Cl (centres undefined)', 54),
  ('CSc1ccccc1N1CCN(CCCCCC(=O)NC2CCCc3ccccc32)CC1.Cl (centres undefined)', 61),
  ('O=S(=O)(c1ccccc1)c1cnc2c(N3CCNCC3)cccc2c1 [INTEPIRDINE]', 68),
  ('CN(C)CCCc1cc(C(=O)Nc2ccc(-c3ccncc3)cc2)ccc1O.Cl.Cl', 60),
  ('c1cc(OCCCN2CCCCC2)ccc1CN1CCCCC1', 65);
